# credit: patent US20250186620A1

Target Under Test: T1, human connexin36 (Cx36) (human, UniProt Q9UKL4 1-321)
T1 construct: whole, on cells; Hemichannel expressed in HEK 293FT cells for FETCH; also called GJD2; not shown: C-terminal fluorescent protein fusion (mEmerald or RFP670 in FETCH)
T1 sequence (looked up): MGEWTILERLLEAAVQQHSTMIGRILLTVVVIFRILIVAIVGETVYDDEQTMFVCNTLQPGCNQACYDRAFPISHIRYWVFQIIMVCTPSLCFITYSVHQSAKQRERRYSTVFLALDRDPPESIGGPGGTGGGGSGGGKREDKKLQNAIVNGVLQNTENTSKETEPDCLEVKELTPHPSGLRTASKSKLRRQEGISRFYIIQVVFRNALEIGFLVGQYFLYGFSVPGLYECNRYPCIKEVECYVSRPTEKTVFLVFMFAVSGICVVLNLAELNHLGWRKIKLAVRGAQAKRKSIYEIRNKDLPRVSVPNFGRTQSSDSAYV
Test Name: FETCH (flow cytometry, % dual-labelled HEK 293FT cells), heterotypic
Quantity: FETCH score (%)
Output spec: scalar in %, unitless text.

Binder	Measurement Units	Assay Value
Cx35K221E (designer connexin Cx35M1, Morone americana Cx35 with K221E) (other, Rationally designed hemichannel; In C. elegans expressed as GFP or mCherry fusion; in mice from AAV9 as mApple or mEmerald fusion; not shown: C-terminal fluorescent protein fusion (mEmerald or RFP670 in FETCH)) MGEWTILERLLEAAVQQHSTMIGRILLTVVVIFRILIVAIVGETVYDDEQTMFVCNTLQPGCNQACYDKAFPISHIRYWVFQIIMVCTPSLCFITYSVHQSAKQKERRYSTVYLTLDKDQDSLKRDESKKIKNTIVNGVLQNTENSTKEAEPDCLEVKEIPNSAMRTTKSKMRRQEGISRFYIIQVVFRNALEIGFLVGQYFLYGFNVPSVYECDRYPCIEDVECYVSRPTEKTVFLVFMFAVSGFCVVLNLAELNHLGWRKIKTAVRGVQARRKSIYEIRNKDLPRMSVPNFGRTQSSDSAYV	%	1.5
Cx35E224H (Morone americana Cx35 mutant E224H) (other, Extracellular loop mutant of the screening library; not shown: C-terminal fluorescent protein fusion (mEmerald or RFP670 in FETCH)) MGEWTILERLLEAAVQQHSTMIGRILLTVVVIFRILIVAIVGETVYDDEQTMFVCNTLQPGCNQACYDKAFPISHIRYWVFQIIMVCTPSLCFITYSVHQSAKQKERRYSTVYLTLDKDQDSLKRDESKKIKNTIVNGVLQNTENSTKEAEPDCLEVKEIPNSAMRTTKSKMRRQEGISRFYIIQVVFRNALEIGFLVGQYFLYGFNVPSVYECDRYPCIKDVHCYVSRPTEKTVFLVFMFAVSGFCVVLNLAELNHLGWRKIKTAVRGVQARRKSIYEIRNKDLPRMSVPNFGRTQSSDSAYV	%	5.9
Wild-type Connexin35 (Cx35) of Morone americana (other, Connexin hemichannel (hexamer) expressed in HEK 293FT cells; In C. elegans it was expressed as GFP or mCherry fusion; also called Cx35WT; not shown: C-terminal fluorescent protein fusion (mEmerald or RFP670 in FETCH)) MGEWTILERLLEAAVQQHSTMIGRILLTVVVIFRILIVAIVGETVYDDEQTMFVCNTLQPGCNQACYDKAFPISHIRYWVFQIIMVCTPSLCFITYSVHQSAKQKERRYSTVYLTLDKDQDSLKRDESKKIKNTIVNGVLQNTENSTKEAEPDCLEVKEIPNSAMRTTKSKMRRQEGISRFYIIQVVFRNALEIGFLVGQYFLYGFNVPSVYECDRYPCIKDVECYVSRPTEKTVFLVFMFAVSGFCVVLNLAELNHLGWRKIKTAVRGVQARRKSIYEIRNKDLPRMSVPNFGRTQSSDSAYV	%	18

Query string: Recorded FETCH score for Cx34.7E214K/E223K (designer connexin Cx34.7M1, Morone americana Cx34.7 with E214K and E223K) (other, Rationally designed hemichannel; In C. elegans expressed as GFP or mCherry fusion; in mice from AAV9 as mEmerald or mApple fusion; not shown: C-terminal fluorescent protein fusion (mEmerald or RFP670 in FETCH)) MGEWTILERLLEAAVQQHSTMIGRILLTVVVIFRILIVAIVGETVYEDEQAMFICNTLQPGCNQACYDKAFPISHIRYWVFQIILVCTPSLCFITYSVHQSAKQKDRRYSFLYPIMERDYGGRDGARKLRNINGILVQHGGDGGGGKEEPDCLEVKEIPNAPRGLTHGKSSKVRRQEGISRFYIIQVVFRNALEIGFLAGQYFLYGFSVPGIFKCDRYPCLKKVECYVSRPTEKTVFLVFMFAVSGICVVLNLAELNHLGWRKIKAAIRGVQARRKSICEIRKKDMAHLSQPPNLGRTQSSESAYV , please?
Result string: 1
